These entries and their values trace back to the METLIN SMRT retention time set (Domingo-Almenara et al. 2019).

RP-LC retention time values, listed per item
Assay: gradient 5% acetonitrile 3 min, to 50% in 2 min, to 85% in 15 min, held 3 min, 100 µL/min
Conditions: column: Zorbax Extend-C18 2.1 x 50 mm; eluents: water / acetonitrile, 0.1% formic acid
Write down the numeric answer in s and omit the unit.

As a guide, the following entries are already answered.
compound: O=C(NCC(=O)N1CCN(c2ccccc2Cl)CC1)c1c[nH]c2ccccc12
assay-metric: RP-LC retention time
value-unit: s
reported-result: 785
--
compound: Cc1cc(C)c(C)c(S(=O)(=O)N(C)C)c1C
assay-metric: RP-LC retention time
value-unit: s
reported-result: 939
--
compound: CCCCNC(=O)C1CCCN(C(=O)c2cc(C)cc(C)c2)C1 (stereo not given)
assay-metric: RP-LC retention time
value-unit: s
reported-result: 828

Attention now shifts to the item below.
Lab note: O=C1CCN(S(=O)(=O)c2ccccc2)CCCN(S(=O)(=O)c2cccc(F)c2)CCN1 gave RP-LC retention time of 795

###

Assay: gradient 5% acetonitrile 3 min, to 50% in 2 min, to 85% in 15 min, held 3 min, 100 µL/min
Conditions: column: Zorbax Extend-C18 2.1 x 50 mm; eluents: water / acetonitrile, 0.1% formic acid
RP-LC retention time values, listed per item
Write down the numeric answer in s and omit the unit.

molecule: Cc1cc(S(=O)(=O)N2CCC(N(C(=O)C3CC3)C3CCOCC3)CC2)ccc1Cl
reported-result: 977
--
molecule: CCOC(=O)Cn1c(=O)c2c(nc3n2CC(C)CN3c2cc(C)cc(C)c2)n(C)c1=O (centres undefined)
reported-result: 1050

Lab note: CS(=O)(=O)N1CCN(C(=O)CCn2nnc3ccccc3c2=O)CC1 gave RP-LC retention time of 604

Lab note: Cc1cc(C)c2c(N3CCOCC3)nc(C(=O)N3CCC(C)CC3)nc2n1 gave RP-LC retention time of 626

###

RP-LC retention time values, listed per item
Assay: gradient 5% acetonitrile 3 min, to 50% in 2 min, to 85% in 15 min, held 3 min, 100 µL/min
Settings: column: Zorbax Extend-C18 2.1 x 50 mm; eluents: water / acetonitrile, 0.1% formic acid
Remember to follow the number with its unit.

molecule: Cc1ccc(S(=O)(=O)Nc2ccc(Cn3cncn3)cc2)cc1F
RP-LC retention time: 732 s
//
molecule: COc1ccc(NS(=O)(=O)c2cc(-c3[nH]ncc3C(=O)N(C)C)oc2C)cc1
RP-LC retention time: 658 s
//
molecule: CS(=O)(=O)N1CCC(C(=O)N2CCCc3ccccc32)Oc2ccc(Cl)cc21 (stereo not given)
RP-LC retention time: 991 s
//
molecule: Cc1ccsc1C(=O)NCCn1c(C)cnc1C1CCC1
RP-LC retention time: 596 s
//
molecule: Cc1cnc(-c2ccncc2)n1CC1CN(S(=O)(=O)C(C)C)C1
RP-LC retention time: 573 s
//
molecule: O=C(N[C@H]1C[C@@H]2C[C@H]1CN2C(=O)NCc1cccc(F)c1)c1cccs1
RP-LC retention time: 738 s
//
molecule: COc1cc(NC(=O)N2c3ccccc3CC2c2nc(C3CC3)no2)cc(OC)c1 (stereo not given)
RP-LC retention time: 1030 s
//
molecule: Cc1cc(OC(C)C(=O)N2CCC3(O)CCCCC3C2)c2c3c(c(=O)oc2c1)CCCC3 (stereo not given)
RP-LC retention time: 892 s

Lab note: Cc1nn(C)c(C)c1-c1cc(C(=O)O)[nH]n1 gave RP-LC retention time of 574 s

Lab note: Cc1c(-c2nnc(C(=O)NCCN(C)C)o2)oc2c(C)cccc12 gave RP-LC retention time of 651 s

###

Assay: gradient 5% acetonitrile 3 min, to 50% in 2 min, to 85% in 15 min, held 3 min, 100 µL/min
Conditions: column: Zorbax Extend-C18 2.1 x 50 mm; eluents: water / acetonitrile, 0.1% formic acid
RP-LC retention time values, listed per item
Write down the numeric answer in s and omit the unit.

compound: COc1cccc(NC(=O)C2CCN(S(=O)(=O)c3ccc4[nH]c(=O)sc4c3)CC2)c1
reported-result: 783
//
compound: Cn1nccc1C(=O)N1CCCC1c1nc(-c2cccc(C(F)(F)F)c2)no1 (stereo not given)
reported-result: 940
//
compound: C=C(C)Cn1c(C(C)(C)C)cn2c3c(=O)n(C)c(=O)n(C)c3nc12
reported-result: 739
//
compound: CCC(C)NC(=O)N1CCc2c(c(-c3nc(Cc4ccccc4)no3)nn2C)C1 (stereo not given)
reported-result: 870

Lab note: COC(=O)c1ccc(NC(=O)NCc2noc3ccccc23)cc1 gave RP-LC retention time of 824

###

Assay: gradient 5% acetonitrile 3 min, to 50% in 2 min, to 85% in 15 min, held 3 min, 100 µL/min
Conditions: column: Zorbax Extend-C18 2.1 x 50 mm; eluents: water / acetonitrile, 0.1% formic acid
assay-metric: RP-LC retention time (s)
Write down the numeric answer in s and omit the unit.

As a guide, the following entries are already answered.
molecule: O=C(c1ccco1)N1CCC(Oc2nc3ccc(F)cc3s2)CC1
assay-metric: RP-LC retention time
value-unit: s
reported-result: 902
//
molecule: Cn1cc2nc(SCC(=O)Nc3ccc(Cl)cc3F)n(CC3CC3)c(=O)c2n1
assay-metric: RP-LC retention time
value-unit: s
reported-result: 954
//
molecule: Cn1cc(-c2ccccc2)cc1C(=O)N1CCN(C2CCCCC2)CC1
assay-metric: RP-LC retention time
value-unit: s
reported-result: 701
//
molecule: COc1cccc(-n2c(=O)c(C(=O)NCCc3cccs3)c(O)c3cccnc32)c1
assay-metric: RP-LC retention time
value-unit: s
reported-result: 1160
//
molecule: Cc1nc(N2CCOCC2)cc(N2CCN(C(=O)c3cnn(-c4ccccc4)n3)CC2)n1
assay-metric: RP-LC retention time
value-unit: s
reported-result: 587

Lab note: CCOc1ccc(CC(=O)N2c3ccccc3CC2c2nc(C3CC3)no2)cc1OCC (stereo not given) gave RP-LC retention time of 1070

Lab note: CCNC(=O)c1nc(N(C)C)c2c(C)scc2n1 gave RP-LC retention time of 593

Lab note: CCNC(=O)c1cnn(-c2cc(-c3nc(C(C)C)no3)ccn2)c1C gave RP-LC retention time of 858

Lab note: Cc1cc(C(=O)N2CCCCC2)c2c(=O)n(CC(=O)Nc3cccc(C#N)c3)c(=O)n(C)c2n1 gave RP-LC retention time of 791

Lab note: Cc1ccc(CNC(=O)c2cc(-c3ccncc3)cn2Cc2ccccc2C)o1 gave RP-LC retention time of 749

Lab note: Cc1cc(C)n(Cc2nc(-c3ccc(NC(=O)c4ccc(C)s4)cc3)oc2C)n1 gave RP-LC retention time of 955

###

Test: gradient 5% acetonitrile 3 min, to 50% in 2 min, to 85% in 15 min, held 3 min, 100 µL/min
Conditions: column: Zorbax Extend-C18 2.1 x 50 mm; eluents: water / acetonitrile, 0.1% formic acid
Binary label based on RP-LC retention time with cut-off 800 s: below gives Yes, not below gives No.

Example entries and their recorded answers appear below.
compound: CSc1nc(N2CCCC2)c2cnn(CCNC(=O)c3ccc(=O)[nH]c3)c2n1
group-label: Yes
--
compound: COCCCNC(=O)c1ccc2c(c1)N=C(C)c1cc(Cl)ccc1S2
group-label: No
--
compound: COCCNS(=O)(=O)c1ccc(-c2ccc(C)cc2)cc1
group-label: No
--
compound: COc1ccc(OC)c(CNC(=O)CCC(=O)N2CCCn3nc(-c4cccn4C)cc32)c1
group-label: Yes

We next turn to a different compound, shown below.
Task: Quick check: does CSc1nnc(-c2cccc(S(=O)(=O)N3CCCC3)c2)o1 have RP-LC retention time under 800 s?
Result: Yes

###

RP-LC retention time values, listed per item
Test: gradient 5% acetonitrile 3 min, to 50% in 2 min, to 85% in 15 min, held 3 min, 100 µL/min
Conditions: column: Zorbax Extend-C18 2.1 x 50 mm; eluents: water / acetonitrile, 0.1% formic acid
Write down the numeric answer in s and omit the unit.

compound: COc1ccc(C2CCCN2C(=O)c2cccs2)cc1 (stereo not given)
RP-LC retention time / s: 888
//
compound: CCn1cc(-c2nc(C(=O)NCc3ccc(F)c(Cl)c3)cs2)c2cccnc21
RP-LC retention time / s: 1050
//
compound: CCCNc1cc(N2CCC(CCC(=O)NCc3ccccc3)CC2)ncn1
RP-LC retention time / s: 666
//
compound: COc1ccc(OCC(=O)Nc2ccc3c(c2)N(C(C)=O)CCC3)cc1
RP-LC retention time / s: 782
//
compound: CCOc1ccc(CN2CCc3nc(N4CCN(c5ccccc5F)CC4)ncc3C2)cc1
RP-LC retention time / s: 834

Lab note: CCN(CC)S(=O)(=O)c1c(C)nn(C(=O)c2ccccc2OC)c1C gave RP-LC retention time of 951

Lab note: CCOc1cc(-c2ccc(F)cc2)nc2ccc(C(=O)N3CCN(c4ccccn4)CC3)cc12 gave RP-LC retention time of 624

Lab note: COC(=O)c1cccc(-c2nc(C3CC(=O)N(c4ccc(F)cc4)C3)no2)c1 (stereo not given) gave RP-LC retention time of 884

Lab note: CCC(C)OC(=O)C1=C(C)NC(=O)NC1c1ccccc1F (stereo not given) gave RP-LC retention time of 800

Lab note: CCOC(=O)O[C@]1(C(=O)OCCl)CCC2[C@@H]3CCC4=CC(=O)C=C[C@]4(C)C3[C@@H](O)C[C@@]21C (stereo not given in full) gave RP-LC retention time of 1110

Lab note: CCNc1cc(N2CCC(CCC(=O)NCc3ccc(C)o3)CC2)ncn1 gave RP-LC retention time of 642
